Entries and their measured Tmax follow.
System: Rattus norvegicus
assay-protocol: t max for anticonvulsant activity was tested in rats intraperitoneally
Type: functional, organism-based

# compound, unit-symbol, Tmax
rows = [
    ("CC(=O)OC1Cc2ccccc2N(C(N)=O)c2ccccc21 (stereo not drawn)", "min", 5),
    ("NC(=O)N1c2ccccc2C[C@H](O)c2ccccc21 [ESLICARBAZEPINE]", "min", 30),
    ("NC(=O)N1c2ccccc2C[C@@H](O)c2ccccc21", "min", 30),
    ("NC(=O)N1c2ccccc2C=Cc2ccccc21 [CARBAMAZEPINE]", "min", 15),
    ("NC(=O)N1c2ccccc2CC(=O)c2ccccc21 [OXCARBAZEPINE]", "min", 5),
    ("CC(=O)O[C@@H]1Cc2ccccc2N(C(N)=O)c2ccccc21", "min", 60),
    ("CC(=O)O[C@H]1Cc2ccccc2N(C(N)=O)c2ccccc21 [ESLICARBAZEPINE ACETATE]", "min", 15),
    ("NC(=O)N1c2ccccc2CC(O)c2ccccc21 (stereo not drawn) [LICARBAZEPINE]", "min", 15),
]

====

assayed-system: Sodium channel alpha subunits; brain (Types I, II, III) (Rattus norvegicus) (UniProt P04775+P04774+P08104)
Sequence (P04775 whole entry, looked up, other chains not shown): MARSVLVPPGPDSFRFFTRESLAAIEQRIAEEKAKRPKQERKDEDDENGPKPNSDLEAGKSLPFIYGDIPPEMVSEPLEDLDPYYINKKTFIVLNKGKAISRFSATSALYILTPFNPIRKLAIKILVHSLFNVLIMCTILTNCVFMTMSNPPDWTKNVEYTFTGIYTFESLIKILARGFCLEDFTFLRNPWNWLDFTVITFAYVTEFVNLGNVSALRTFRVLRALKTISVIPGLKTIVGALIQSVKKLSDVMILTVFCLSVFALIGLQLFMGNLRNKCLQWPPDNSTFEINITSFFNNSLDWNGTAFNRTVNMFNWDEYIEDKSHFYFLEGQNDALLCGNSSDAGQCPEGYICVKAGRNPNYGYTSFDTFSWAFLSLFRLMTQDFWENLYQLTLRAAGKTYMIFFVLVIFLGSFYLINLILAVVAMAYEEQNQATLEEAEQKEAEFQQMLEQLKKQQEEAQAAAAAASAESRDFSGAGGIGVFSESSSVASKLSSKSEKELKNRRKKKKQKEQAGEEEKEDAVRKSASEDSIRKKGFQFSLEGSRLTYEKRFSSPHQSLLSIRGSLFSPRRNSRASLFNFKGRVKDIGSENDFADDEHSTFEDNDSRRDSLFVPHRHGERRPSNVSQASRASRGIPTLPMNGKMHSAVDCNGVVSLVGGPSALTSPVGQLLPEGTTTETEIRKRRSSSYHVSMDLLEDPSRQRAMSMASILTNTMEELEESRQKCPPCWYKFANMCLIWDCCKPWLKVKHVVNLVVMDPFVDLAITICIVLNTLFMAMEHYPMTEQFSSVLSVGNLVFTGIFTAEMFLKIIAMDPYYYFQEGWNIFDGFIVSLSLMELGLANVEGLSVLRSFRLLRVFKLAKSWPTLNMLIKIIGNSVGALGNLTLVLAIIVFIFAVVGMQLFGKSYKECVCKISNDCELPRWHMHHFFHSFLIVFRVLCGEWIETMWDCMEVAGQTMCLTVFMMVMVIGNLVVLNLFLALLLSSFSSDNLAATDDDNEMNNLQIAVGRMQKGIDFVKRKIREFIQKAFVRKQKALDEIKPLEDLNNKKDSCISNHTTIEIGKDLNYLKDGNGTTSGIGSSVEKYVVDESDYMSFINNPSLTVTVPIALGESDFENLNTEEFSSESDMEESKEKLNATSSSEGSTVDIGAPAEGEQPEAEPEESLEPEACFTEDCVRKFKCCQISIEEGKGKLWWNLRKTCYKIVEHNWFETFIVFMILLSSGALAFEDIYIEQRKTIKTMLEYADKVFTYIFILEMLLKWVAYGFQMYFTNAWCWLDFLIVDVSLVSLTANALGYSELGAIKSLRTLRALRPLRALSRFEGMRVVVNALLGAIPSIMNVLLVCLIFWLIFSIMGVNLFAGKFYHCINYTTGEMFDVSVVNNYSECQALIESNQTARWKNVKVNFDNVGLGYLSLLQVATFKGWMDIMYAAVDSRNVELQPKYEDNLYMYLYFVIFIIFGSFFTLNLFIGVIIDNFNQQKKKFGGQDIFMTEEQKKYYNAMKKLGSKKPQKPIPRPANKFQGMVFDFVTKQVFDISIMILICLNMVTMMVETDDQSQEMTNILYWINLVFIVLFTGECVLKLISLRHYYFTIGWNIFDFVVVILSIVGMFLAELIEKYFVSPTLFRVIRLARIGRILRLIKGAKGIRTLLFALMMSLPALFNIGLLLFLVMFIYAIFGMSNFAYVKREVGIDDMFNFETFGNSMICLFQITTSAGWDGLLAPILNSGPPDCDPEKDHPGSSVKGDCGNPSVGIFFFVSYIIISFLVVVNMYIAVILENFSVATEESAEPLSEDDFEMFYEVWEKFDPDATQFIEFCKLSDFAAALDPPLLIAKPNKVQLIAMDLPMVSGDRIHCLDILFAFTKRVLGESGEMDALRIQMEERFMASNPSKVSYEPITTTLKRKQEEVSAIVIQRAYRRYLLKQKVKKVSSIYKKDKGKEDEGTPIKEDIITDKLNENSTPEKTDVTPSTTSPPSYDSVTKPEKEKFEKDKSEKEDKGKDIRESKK
Sequence (P08104 whole entry, looked up, other chains not shown): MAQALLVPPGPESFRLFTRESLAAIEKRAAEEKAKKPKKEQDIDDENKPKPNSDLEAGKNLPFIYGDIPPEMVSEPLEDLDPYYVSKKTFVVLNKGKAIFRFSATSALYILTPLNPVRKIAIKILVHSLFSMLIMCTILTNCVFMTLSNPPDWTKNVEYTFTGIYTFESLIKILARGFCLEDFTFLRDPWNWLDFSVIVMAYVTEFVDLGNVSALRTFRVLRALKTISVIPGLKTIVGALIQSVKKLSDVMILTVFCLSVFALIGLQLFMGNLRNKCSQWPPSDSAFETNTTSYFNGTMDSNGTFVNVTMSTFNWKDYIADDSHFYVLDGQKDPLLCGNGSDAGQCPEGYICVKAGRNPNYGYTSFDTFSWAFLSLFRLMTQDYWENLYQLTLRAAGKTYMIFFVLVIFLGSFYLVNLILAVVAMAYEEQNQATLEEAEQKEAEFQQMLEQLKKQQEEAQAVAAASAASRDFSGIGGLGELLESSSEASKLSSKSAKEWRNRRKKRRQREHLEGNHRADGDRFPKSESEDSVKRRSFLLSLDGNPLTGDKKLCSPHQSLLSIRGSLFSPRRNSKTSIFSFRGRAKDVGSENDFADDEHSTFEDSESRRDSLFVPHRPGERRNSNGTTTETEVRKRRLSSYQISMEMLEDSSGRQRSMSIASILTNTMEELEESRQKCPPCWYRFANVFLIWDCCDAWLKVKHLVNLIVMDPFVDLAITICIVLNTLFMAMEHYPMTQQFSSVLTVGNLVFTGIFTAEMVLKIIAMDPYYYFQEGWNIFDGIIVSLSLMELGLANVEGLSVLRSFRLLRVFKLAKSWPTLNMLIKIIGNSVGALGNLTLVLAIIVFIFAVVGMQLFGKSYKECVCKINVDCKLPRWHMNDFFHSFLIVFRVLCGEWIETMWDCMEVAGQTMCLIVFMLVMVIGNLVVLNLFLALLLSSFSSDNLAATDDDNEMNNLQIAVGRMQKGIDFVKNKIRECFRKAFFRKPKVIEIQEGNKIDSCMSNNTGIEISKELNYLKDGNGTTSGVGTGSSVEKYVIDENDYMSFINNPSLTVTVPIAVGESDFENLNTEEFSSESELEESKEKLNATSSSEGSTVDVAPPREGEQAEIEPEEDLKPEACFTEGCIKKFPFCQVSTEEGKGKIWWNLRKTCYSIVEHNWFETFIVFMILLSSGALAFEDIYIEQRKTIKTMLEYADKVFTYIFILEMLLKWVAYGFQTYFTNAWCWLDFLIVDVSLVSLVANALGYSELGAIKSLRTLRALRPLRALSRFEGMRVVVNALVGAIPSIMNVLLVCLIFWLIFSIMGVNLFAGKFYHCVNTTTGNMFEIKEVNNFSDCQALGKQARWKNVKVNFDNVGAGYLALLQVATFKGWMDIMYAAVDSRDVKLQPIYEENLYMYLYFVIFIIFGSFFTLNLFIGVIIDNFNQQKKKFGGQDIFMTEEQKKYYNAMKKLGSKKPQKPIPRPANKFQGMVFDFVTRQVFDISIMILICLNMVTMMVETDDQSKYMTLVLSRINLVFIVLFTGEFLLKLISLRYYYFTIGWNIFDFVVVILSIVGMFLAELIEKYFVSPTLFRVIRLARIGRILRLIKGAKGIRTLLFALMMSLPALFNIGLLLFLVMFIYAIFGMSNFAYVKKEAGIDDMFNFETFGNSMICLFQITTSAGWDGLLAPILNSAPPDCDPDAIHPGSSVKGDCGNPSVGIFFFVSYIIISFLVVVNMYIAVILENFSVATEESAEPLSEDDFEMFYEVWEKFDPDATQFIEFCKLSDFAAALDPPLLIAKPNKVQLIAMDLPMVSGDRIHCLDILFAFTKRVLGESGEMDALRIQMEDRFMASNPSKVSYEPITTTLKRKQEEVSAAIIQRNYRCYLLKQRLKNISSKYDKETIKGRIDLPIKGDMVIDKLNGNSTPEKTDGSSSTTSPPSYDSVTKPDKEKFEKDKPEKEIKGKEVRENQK
assay-protocol: Percent inhibition of 22Na+ uptake by voltage sensitive sodium channel of rat cortical synaptosomes at 100 uM
Type: functional, subcellular
quantity-kind: inhibition (%)

# compound, quantitative-readout
data = [
    ("CC(=O)O[C@@H]1Cc2ccccc2N(C(N)=O)c2ccccc21", 57.7),
    ("NC(=O)N1c2ccccc2CC(=O)c2ccccc21 [OXCARBAZEPINE]", 50.2),
    ("NC(=O)N1c2ccccc2C=Cc2ccccc21 [CARBAMAZEPINE]", 44.3),
    ("CC(=O)O[C@H]1Cc2ccccc2N(C(N)=O)c2ccccc21 [ESLICARBAZEPINE ACETATE]", 73.4),
    ("CC(=O)OC1Cc2ccccc2N(C(N)=O)c2ccccc21 (stereo not given)", 61.8),
]

====

assayed-system: Sodium channel alpha subunits; brain (Types I, II, III) (Rattus norvegicus) (UniProt P04775+P04774+P08104)
assay-protocol: Percent inhibition of 22Na+ uptake by voltage sensitive sodium channel of rat cortical synaptosomes at 300 uM
Type: functional, subcellular

# compound, inhibition, %
measured = [
    ("CC(=O)O[C@@H]1Cc2ccccc2N(C(N)=O)c2ccccc21", 73.2),
    ("NC(=O)N1c2ccccc2C=Cc2ccccc21 [CARBAMAZEPINE]", 64.8),
    ("CC(=O)O[C@H]1Cc2ccccc2N(C(N)=O)c2ccccc21 [ESLICARBAZEPINE ACETATE]", 95.6),
    ("CC(=O)OC1Cc2ccccc2N(C(N)=O)c2ccccc21 (centres undefined)", 82.1),
]

====

Organism: Rattus norvegicus
assay-protocol: Compound was tested for anticonvulsant activity against MES-induced seizures in rat
Design: concentration or dose not given beside the values
As shown below, each of these molecules has a reported Protection value.

# molecule, unit-symbol, Protection
measured = [
    ("CC(C)(C)C(=O)OC1Cc2ccccc2N(C(N)=O)c2ccccc21 (centres undefined)", "%", 6.5),
    ("NC(=O)N1c2ccccc2CC(OC(=O)CBr)c2ccccc21 (centres undefined)", "%", 15.1),
    ("NC(=O)N1c2ccccc2CC(OC(=O)c2ccccc2)c2ccccc21 (centres undefined)", "%", 17.2),
    ("CCCC(=O)OC1Cc2ccccc2N(C(N)=O)c2ccccc21 (centres undefined)", "%", 34.2),
    ("CCCC(CCC)C(=O)OC1Cc2ccccc2N(C(N)=O)c2ccccc21 (centres undefined)", "%", 0.2),
    ("CC(=O)O[C@@H]1Cc2ccccc2N(C(N)=O)c2ccccc21", "%", 5.9),
    ("CC(=O)Oc1ccccc1C(=O)OC1Cc2ccccc2N(C(N)=O)c2ccccc21 (centres undefined)", "%", 10.2),
    ("CC(=O)OC1Cc2ccccc2N(C(N)=O)c2ccccc21 (centres undefined)", "%", 54.4),
    ("NC(=O)N1c2ccccc2CC(OC=O)c2ccccc21 (centres undefined)", "%", 32.1),
    ("CC(=O)O[C@H]1Cc2ccccc2N(C(N)=O)c2ccccc21 [ESLICARBAZEPINE ACETATE]", "%", 100),
    ("COc1ccc(CC(=O)OC2Cc3ccccc3N(C(N)=O)c3ccccc32)cc1 (centres undefined)", "%", 8.1),
    ("CCCC(CC)C(=O)OC1Cc2ccccc2N(C(N)=O)c2ccccc21 (centres undefined)", "%", -12.8),
    ("CCOC(=O)OC1Cc2ccccc2N(C(N)=O)c2ccccc21 (centres undefined)", "%", 18.3),
    ("NC(=O)N1c2ccccc2CC(OC(=O)c2cccnc2)c2ccccc21 (centres undefined)", "%", 32.8),
    ("CCCCCCCCCCCCCCCCCC(=O)OC1Cc2ccccc2N(C(N)=O)c2ccccc21 (centres undefined)", "%", 0.8),
    ("NC(=O)N1c2ccccc2CC(OC(=O)Cc2ccc([N+](=O)[O-])cc2)c2ccccc21 (centres undefined)", "%", 13.8),
    ("CC(Cl)C(=O)OC1Cc2ccccc2N(C(N)=O)c2ccccc21 (centres undefined)", "%", 3.9),
    ("CCC(=O)OC1Cc2ccccc2N(C(N)=O)c2ccccc21 (centres undefined)", "%", 40.6),
    ("NC(=O)N1c2ccccc2CC(OC(=O)CCl)c2ccccc21 (centres undefined)", "%", 0.5),
]

====

Items are presented alongside their recorded inhibition.
assayed-system: Sodium channel alpha subunits; brain (Types I, II, III) (Rattus norvegicus) (UniProt P04775+P04774+P08104)
assay-protocol: Percent inhibition of 22Na+ uptake by voltage sensitive sodium channel of rat cortical synaptosomes at 30 uM
Format: functional, subcellular

# molecule, inhibition (%)
measured = [
    ("NC(=O)N1c2ccccc2C=Cc2ccccc21 [CARBAMAZEPINE]", 22.6),
    ("CC(=O)O[C@@H]1Cc2ccccc2N(C(N)=O)c2ccccc21", 17.9),
    ("CC(=O)OC1Cc2ccccc2N(C(N)=O)c2ccccc21 (stereo not given)", 42.2),
    ("CC(=O)O[C@H]1Cc2ccccc2N(C(N)=O)c2ccccc21 [ESLICARBAZEPINE ACETATE]", 52.6),
    ("NC(=O)N1c2ccccc2CC(=O)c2ccccc21 [OXCARBAZEPINE]", 31.2),
]

====

assayed-system: Sodium channel alpha subunits; brain (Types I, II, III) (Rattus norvegicus, UniProt P04775+P04774+P08104)
assay-protocol: Displacement of [3H]BTX from voltage-gated sodium channel of rat cortical synaptosomes
Format: subcellular
Listed here are molecules together with their documented IC50.
quantity-kind: IC50 (µM)

# molecule, quantity-kind, quantitative-readout
measured = [
    ("CC(=O)O[C@@H]1Cc2ccccc2N(C(N)=O)c2ccccc21", "IC50", 113),
    ("NC(=O)N1c2ccccc2C=Cc2ccccc21 [CARBAMAZEPINE]", "IC50", 210),
    ("CC(=O)O[C@H]1Cc2ccccc2N(C(N)=O)c2ccccc21 [ESLICARBAZEPINE ACETATE]", "IC50", 138),
    ("CC(=O)OC1Cc2ccccc2N(C(N)=O)c2ccccc21 (stereo not given)", "IC50", 141),
    ("NC(=O)N1c2ccccc2CC(=O)c2ccccc21 [OXCARBAZEPINE]", "IC50", 161),
]
